- PROTOCOL_DESCRIPTION: Tmax in pancreatitis Sprague-Dawley rat peritoneal fluid at 30 mg/kg, iv after 30 mins
- Assay type: ADME, organism-based
- Set-up: dose 30 mg/kg, route intravenous
ASSAY_METRIC: Tmax (min)

[[record]]
compound = "C[C@@H](O)[C@H]1C(=O)N2C(C(=O)O)=C(SCCN=CN)C[C@H]12 [IMIPENEM ANHYDROUS]"
assay_metric = "Tmax"
measured_result = 36.7


----------
- PROTOCOL_DESCRIPTION: Half life pancreatitis Sprague-Dawley rat peritoneal fluid at 30 mg/kg, iv after 30 mins
- Format: ADME, organism-based
- Set-up: dose 30 mg/kg, route intravenous
ASSAY_METRIC: half-life

[[record]]
molecule = "C[C@@H](O)[C@H]1C(=O)N2C(C(=O)O)=C(SCCN=CN)C[C@H]12 [IMIPENEM ANHYDROUS]"
measured_result = "17.6 min"

